Below, each entry is listed with its recorded HDAC8 fold selectivity HDAC2.
- measured.target: recombinant HDAC8 (Homo sapiens)
- Construct: purchased BPS Bioscience
- Sequence (Q9BY41 whole entry): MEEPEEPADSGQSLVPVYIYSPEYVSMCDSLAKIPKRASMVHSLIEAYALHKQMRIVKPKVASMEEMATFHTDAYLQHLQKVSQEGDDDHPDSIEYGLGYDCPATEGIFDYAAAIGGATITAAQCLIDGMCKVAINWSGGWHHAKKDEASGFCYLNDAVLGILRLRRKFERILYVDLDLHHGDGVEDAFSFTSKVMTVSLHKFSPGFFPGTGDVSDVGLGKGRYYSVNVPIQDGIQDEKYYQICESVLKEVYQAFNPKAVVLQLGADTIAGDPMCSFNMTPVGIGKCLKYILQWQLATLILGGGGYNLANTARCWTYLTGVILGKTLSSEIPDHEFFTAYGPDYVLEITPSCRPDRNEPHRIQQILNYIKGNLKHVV
- protocol.details: Recombinant HDAC8 inhibition (HDAC-Glo)
- Type: biochemical
- run.parameters: HDAC8 over HDAC2; calculated from IC50 values
- Description: Inhibitory activity with HDAC8 was measured using the following procedure. In a half area 96-well white opaque plate, recombinant HDAC8 (75 ng, BPS Bioscience) was incubated in HDAC-Glo™ buffer (39 μL) with inhibitor in DMSO (1 μL), or DMSO alone (1 μL) as a control, for 15 minutes at room temperature. […] Luminescent signal was measured 30 minutes after adding the substrate reagent using a Geniosplus Fluorimeter (Tecan) at optimal gain. […]

compound | uom | HDAC8 fold selectivity HDAC2
CCC(CCCC(=O)Nc1ccccc1)CCC(=O)NO (racemic) [Compound 1b] | fold | 38
CCCCCCC(CCCC(=O)Nc1ccccc1)CCC(=O)NO (racemic) [Compound 1d] | fold | 480
O=C(CCC(CCCC(=O)Nc1ccccc1)Cc1ccccc1)NO (racemic) [Compound 1f] | fold | 670
O=C(CC[C@@H](CCCC(=O)Nc1ccccc1)Cc1ccccc1)NO [(R)-1f] | fold | 330
O=C(CC[C@H](CCCC(=O)Nc1ccccc1)Cc1ccccc1)NO [(S)-1f] | fold | 1300
